test system: PPARg DBDmut:RXRa IVT, anti-PPARg (DBD mutation: PPARg1 K132A/R137A, NR concentration 270 nM, RXRa partner concentration 90 nM); experiment: PBM binding z-score (relative to random genomic background probes); higher = stronger binding; sequences stand for … in GC…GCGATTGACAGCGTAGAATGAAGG
Note: every record was labeled by where its PBM binding z-score sits among group A: < -0.2; group B: ≥ -0.2 and < 0.7; group C: ≥ 0.7

AGAATGAGGTTACCAAAGATCAGGCAAACGCTTG : group B
CGATCTAGGTCATTGACAGGACAGTGAATAGTAA : group C
GCGACTAGGGCAAAGCAGGTTACCATAAGGTTGG : group A
TAGCCTAGGTCATGCGCGCCAGTATAGTGTCGGC : group C
TGAATGAGGTTAAAGATCAGGGAACGTGGCGTCG : group B

IN: Would you mind sorting `GCATGTAGATCAAGGTTAAGAAAGACTAAGCTAA` into the appropriate category?
OUT: group A

IN: Would you mind sorting `TTACTAAGGTGAGCTGAGGTCGTTGATCCAACTC` into the appropriate category?
OUT: group B

IN: Would you mind sorting `GCTATTAGTTGAAATGGCAACCGAATGATTCTCG` into the appropriate category?
OUT: group B

IN: Would you mind sorting `GCTCGGAGGACAAGATCAGAGCTTTGTCCGTAGA` into the appropriate category?
OUT: group A

IN: Would you mind sorting `ACAGACAGGTGATGGAGGTAACTCAGGCTATCAT` into the appropriate category?
OUT: group B

IN: Would you mind sorting `CGAACTAGGTCTTCCAGGACAGTGAATACATTGA` into the appropriate category?
OUT: group B

IN: Would you mind sorting `TCTATTAGTTGATTAGGGCGACCGAAACAGCGGA` into the appropriate category?
OUT: group C

IN: Would you mind sorting `GCAAACAGGTGAAACGCAGGTAACTCAGGGTGGC` into the appropriate category?
OUT: group A

IN: Would you mind sorting `CCTCGGAAGACAGAAGGTCAGAGCTGTCCGCTTT` into the appropriate category?
OUT: group A

IN: Would you mind sorting `TTACCAAGGTGAAAGGTCGTTTATGCACGCCTTG` into the appropriate category?
OUT: group C

IN: Would you mind sorting `TCTTGTAGATCAGCAGGTTGAGAAAGCTGGCCAA` into the appropriate category?
OUT: group A

IN: Would you mind sorting `CCTACTGCGCCATTCAGAGGTCATTGATCATATG` into the appropriate category?
OUT: group B

IN: Would you mind sorting `CCTGCTAGGTCAATGGTCAGCTATAGCAGCTCGC` into the appropriate category?
OUT: group B

IN: Would you mind sorting `AGAACGAGGGCACGCTGAGTTGATACCAGAGTAG` into the appropriate category?
OUT: group B

IN: Would you mind sorting `TCTTGTAGATCACCAGGTTAAGAAAGCTGGCCAA` into the appropriate category?
OUT: group B

IN: Would you mind sorting `AGAATGAGGTTTAGATCAGGGAAACAGAATACAT` into the appropriate category?
OUT: group C

IN: Would you mind sorting `CAGCCTAGGTCCGGGCCAGTATAGGAGGAACGTT` into the appropriate category?
OUT: group A

====

Quick reference for PBM binding z-score among some sequences
test system: FXR:RXRa (NR concentration 270 nM, RXRa partner concentration 90 nM); assay: PBM binding z-score (relative to random genomic background probes); higher = stronger binding; sequences stand for … in GC…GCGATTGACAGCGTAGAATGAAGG

In the examples that follow, each entry is paired with its recorded PBM binding z-score.
ATCGAAAGGTCGCCGAGGTGAGTATACACCGTTT : 5.1
GCGACTGGGGCAGAGCAGGTTACCATAAGGTTGG : 0.158
CCTACTGGGCCAAAAAGGTCATTAATGCCGATAA : 2.98

IN: For the sequence `CCTACTGGGCCAAAAAGGTTATTGATGCCGATAA` , report PBM binding z-score.
OUT: -0.207

IN: For the sequence `CCTTACAGGTCACTGACAGGTTATAGCATTTGGA` , report PBM binding z-score.
OUT: 6.15

IN: For the sequence `GCTTATAGATCAAGGTTAAGAAAGACTAAGCTAA` , report PBM binding z-score.
OUT: 0.198

IN: For the sequence `TCTGCTAGATCAACGATGGTCAGCTAATCTGCTA` , report PBM binding z-score.
OUT: -1.43

IN: For the sequence `GATACAGGGTCAGCTAGAGGCCAGAATATGGAAA` , report PBM binding z-score.
OUT: 4.72

IN: For the sequence `AGTCAAAGTTCAGGAAGAGGTAACGTAAAGCACG` , report PBM binding z-score.
OUT: 3.92

IN: For the sequence `GCTGCTAGGTCAGCTTGGTCAGCTAACGGGTACG` , report PBM binding z-score.
OUT: 1.35

IN: For the sequence `CCTAGTAGTTGACCATAAGGGCAACCGAAGCTCG` , report PBM binding z-score.
OUT: 0.577

IN: For the sequence `GCTGCTTGGTCAACTGATGGTCAGCTAAAGCTCG` , report PBM binding z-score.
OUT: -0.663

IN: For the sequence `CCTTACGGGTTACGAGGTTATAGCACGACGAGCG` , report PBM binding z-score.
OUT: 1.8

IN: For the sequence `CGTCCAAGGTCAGTAGGTCAGTGAAAGCGACGTG` , report PBM binding z-score.
OUT: 4.68

IN: For the sequence `ACAGACAGGTGATGAAGGTTACTCAGGCTATCAT` , report PBM binding z-score.
OUT: 0.29

IN: For the sequence `GCTCGCAGGCCATTTGGGTCACTCAATGACGGGC` , report PBM binding z-score.
OUT: 0.079

IN: For the sequence `TAGCCTAGTTCAGATCGGGCCAGTATACGCTATA` , report PBM binding z-score.
OUT: -0.29

IN: For the sequence `CAAACTAGCTCACCGGAAGGTCAAAGTCCGCATG` , report PBM binding z-score.
OUT: 2.99

IN: For the sequence `AGTCAAAGTTCATCTAGGTAACGGAAGATATGCT` , report PBM binding z-score.
OUT: 6.87

IN: For the sequence `GCTTACGGGCCAAAGGTTATAGCATGAATAGAAT` , report PBM binding z-score.
OUT: 1.52

IN: For the sequence `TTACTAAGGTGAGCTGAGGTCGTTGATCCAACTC` , report PBM binding z-score.
OUT: 2.26

IN: For the sequence `ATCGAAAGGTCGACTAGGTGAGTATACACCGTTT` , report PBM binding z-score.
OUT: 4.12

====

tested on: RXRa DBDmut IVT, anti-RXR (DBD mutation: RXRa K156A/R161A, NR concentration 90 nM); test: PBM binding z-score (relative to random genomic background probes); higher = stronger binding; sequences stand for … in GC…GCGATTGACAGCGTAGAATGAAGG
Respond with 1 for PBM binding z-score values of 0.3 and above, -1 for values below.

ACTATTAGTTGACTTAGGGCAATCGATACGACGC : 1
ACAGACAGGTGATGAAGATAACTCAGGCTATCAT : -1
TAGCCTAGGTCATTGGGACAGTATAGTACGCATC : 1
CTCGAAAGGTCGTGCTCAGGGGAGTATACCAAAC : 1
TCTGCTATGTCAGTTGGTCAGCTAACGAGCTGCC : -1

Kindly consider the entry below.
IN: Entry `TCTTGTAGATCAACAGGAGGTGAAGAAAGATCGA` : is its PBM binding z-score no less than 0.3?
OUT: -1

====

tested on: PXR:RXRa (NR concentration 270 nM, RXRa partner concentration 90 nM); test: PBM binding z-score (relative to random genomic background probes); higher = stronger binding; sequences stand for … in GC…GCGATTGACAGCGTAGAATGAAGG
test-readout: PBM binding z-score
API doc: respond with a numeric literal and nothing else, no unit.

IN: For the sequence `CTTCCAAGGTGAACAAGGTCGTTGATTACTATTC` , report PBM binding z-score.
OUT: 2.6

IN: For the sequence `ATCTCTAGGTAAGACTCAGTTCAGGGAAGAACGC` , report PBM binding z-score.
OUT: 1.19

IN: For the sequence `ACTAGTTGGTCAGCTGAGGCCACACACAATTCGG` , report PBM binding z-score.
OUT: 1.11

IN: For the sequence `CAAACTAGGTCAAGAAGTCAAAGTCCGCTTCCCG` , report PBM binding z-score.
OUT: 1.49

IN: For the sequence `TCTTGGAGATCAAAGGTTAAGAAAGCCGAAGCCT` , report PBM binding z-score.
OUT: 2.44

IN: For the sequence `CGTGAAAGTTCAAGGTAACGTAACAGAAAGCAGC` , report PBM binding z-score.
OUT: 4.03
